FYI, the data here is from ChEMBL document CHEMBL1772942.

Reported pIC50 by item:
tested on: THP-1; assay: Cytotoxicity against human THP1 cells after 48 hrs by sulforhodamine B assay; format: functional, cell-based; conditions: THP-1, 48 h
Lab note — pIC50 values are minus log10 of concentrations in M.

Illustrative cases are given below, each with its answer.
| Smiles text | pIC50 |
| --- | --- |
| O=C1C(=O)N(CCCCCBr)c2ccccc21 | 4.37 |
| O=C1C(=O)N(CCCCBr)c2ccccc21 | 4.91 |

Let us examine a further case.
Lab note: need pIC50 for O=C1C(=O)N(CCCCCCBr)c2ccccc21 on THP-1, anyone have it?
4.58
